Test system: mice
ASSAY_EXPLANATION: Cytokine induction (IL-6, IP-10) in mice after intravenous administration
Assay type: in vivo
Parameters: unit not given here
REPORTED_CONDITIONS: 0.5 mpk, 6 hours
// F strictly below 900 in IP-10; T otherwise

Solved cases (8 shown):
CCCCCCCCCCCOC(=O)CCCCCN(CCO)CCCCCCCC(=O)OC(CCCCCCCC)CCCCCCCC ... T
CCCCCC=CCC=CCCCCCCCCC(CCCCCCCCC=CCC=CCCCCC)OC(=O)CCCN(C)C (stereo not shown) [MC3, reference compound] ... F
CCCCCCCCCOC(=O)CCCCCCCN(CCO)CCCCCCCOC(=O)C(CCCCCCCC)CCCCCCCC ... T
CCCCCCCCCOC(=O)CCCCCCCN(CCCCCCCC(=O)OC(CCCCCCCC)CCCCCCCC)CCOC(C)=O ... F
CCCCCCCCCCCCCCCCCCN(CCO)CCCCCCCC(=O)OC(CCCCCCCC)CCCCCCCC ... F
CCCCC/C=C\C/C=C\CCCCCCCCN(CCO)CCCCCCCC(=O)OC(CCCCCCCC)CCCCCCCC ... F
CCCCCC/C=C\COC(=O)CCCCCCCN(CCO)CCCCCCCC(=O)OC/C=C\CCCCCC ... F
CCCCCCCCCOC(=O)CCCCCCCN(CCO)CCCCCCCCCC(=O)OC(CCCCCCCC)CCCCCCCC ... T

Consider the additional compound presented here.
query: Quick check: does CCCCCCCCCCCCCCN(CCO)CCCCCCCC(=O)OC(CCCCCCCC)CCCCCCCC have IP-10 greater than or equal to 900?
result: F

Cited source: patent US12404232B2
